Recorded measurements of ddG of mutation (higher = less stable), one per entry
B1: Cold shock protein CspB, P41016 (parent)
chain: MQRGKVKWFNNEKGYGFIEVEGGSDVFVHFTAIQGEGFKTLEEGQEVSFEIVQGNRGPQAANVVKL

Variants of: B1
assay conditions: Bacillus caldolyticus; pH 7; 75 °C; Thermal; CD; Na cacodylate/HCl 0.1 M; NaCl 2 M; reversible: Yes; structure 1C9O; whole UniProt chain shown

# mutation string, u, ddG of mutation (higher = less stable)
measured = [
    ("E12K", "kcal/mol", 0.29),
    ("E36K", "kcal/mol", -0.79),
    ("R56E", "kcal/mol", -0.24),
]
